Test: Toxicity liver stage against HepG2, at 10uM
Type: cell-based
Design: test concentration 10 uM, cell line HepG2-A16-CD81EGFP
Details: human, HepG2-A16-CD81EGFP cells; read-out: INHIBITION
endpoint.label: cytotoxicity at 10 µM (%)
Numeric answer only, unit % assumed.

molecule | cytotoxicity at 10 µM [%]
COc1cccc(NC(=O)NCC(O)c2ccc(F)cc2F)c1 (centres undefined) | -1.43

// next entry
Incoming: Item under review: `COc1c(CNCc2ccc(N3CCCC3)nc2)c(C(C)C)nn1C` . Reported cytotoxicity at 10 µM?
Outgoing: -11.5

---

Experiment: Toxicity liver stage against HepG2, at 10uM
Type: cell-based
Design: test concentration 10 uM, cell line HepG2-A16-CD81EGFP
Conditions: human, HepG2-A16-CD81EGFP cells; read-out: INHIBITION
Parameter: cytotoxicity at 10 µM. Scope: all listed entries.
Numeric answer only, unit % assumed.

Reference set (3 entries):
compound | cytotoxicity at 10 µM [%]
O=C(CNC(=O)c1ccccc1Cl)Nc1nccs1 | -3.09
CN1CCCC(CCC(=O)N2CCc3sc(C(=O)N(C)C)cc3C2)C1 (stereo unspecified) | 1.42
Cc1ccc(CN(C)C(=O)c2cc(Cn3ccnc3C(C)C)[nH]n2)o1 | 0.073

Incoming: Item under review: `CC(=O)NC[C@]1(O)CCN(C(=O)c2ccc(C)c(F)c2)C[C@H]1O` . Reported cytotoxicity at 10 µM?
Outgoing: -2.78

Incoming: Item under review: O=C(CC1CCc2ccccc21)N1CCC(O)(Cn2ccnc2)CC1 (stereo unspecified) . Reported cytotoxicity at 10 µM?
Outgoing: 5.01

Incoming: Item under review: `O=c1oc(-c2ccc(F)cc2)nn1CCc1ccccn1` . Reported cytotoxicity at 10 µM?
Outgoing: -5.65

Incoming: Item under review: `CNC(=O)C(C)(C)N1CCC[C@H]1C(=O)NC1CCCC1` . Reported cytotoxicity at 10 µM?
Outgoing: -3.01

Incoming: Item under review: `COc1nonc1NCn1nc(C)cc1C` . Reported cytotoxicity at 10 µM?
Outgoing: -15

Incoming: Item under review: Cc1ncccc1CNCC1CCc2nnc(C(C)C)n2C1 (stereo unspecified) . Reported cytotoxicity at 10 µM?
Outgoing: -6.27

Incoming: Item under review: `CN(Cc1ccncc1)C(=O)[C@H]1CSCN1C(=O)OC(C)(C)C` . Reported cytotoxicity at 10 µM?
Outgoing: -9.65

Incoming: Item under review: `CN1CCN(C(=O)[C@H]2C[C@H]3[C@H](CCN3Cc3nccs3)O2)CC1` . Reported cytotoxicity at 10 µM?
Outgoing: 1.73

---

Experiment: Toxicity liver stage against HepG2, at 10uM
Type: cell-based
Set-up: test concentration 10 uM, cell line HepG2-A16-CD81EGFP
Conditions: human, HepG2-A16-CD81EGFP cells; read-out: INHIBITION
endpoint.label: cytotoxicity at 10 µM (%)
Numeric answer only, unit % assumed.

compound | endpoint.label | unit.of.measurement | result.number
COc1cc(CN(CCCN(C)C)Cc2ccccn2)cc2c1OCO2 | cytotoxicity at 10 µM | % | 1.44
O=C(c1nc(=O)[nH][nH]1)N1CCC2(CCCCC2)C1 | cytotoxicity at 10 µM | % | 11.4
CC(C)(NC(=O)c1scnc1Cl)c1ccccc1 | cytotoxicity at 10 µM | % | -10.9
COc1ccccc1-n1nc(-c2ccco2)n(CC(=O)NC2CC2)c1=O | cytotoxicity at 10 µM | % | 0.355
CC1(C)C(C(=O)NCCC2CN(Cc3c[nH]cn3)CCO2)C1(C)C (centres undefined) | cytotoxicity at 10 µM | % | -3.67
O=C(CCn1cnnc1)N1CCCC(c2ncc[nH]2)C1 (centres undefined) | cytotoxicity at 10 µM | % | -9.01
COc1ccc(-c2nc(CN3CC(n4cccn4)C3)no2)cc1 | cytotoxicity at 10 µM | % | -3.08
O=C(c1csc(-c2ccccn2)n1)N1CCCC1Cn1cccn1 (centres undefined) | cytotoxicity at 10 µM | % | -3.69
CCc1nc(CSCc2csc(CS(C)(=O)=O)n2)cs1 | cytotoxicity at 10 µM | % | -6.79
CC(C)C1CN(C(=O)c2csc(CN(C)C)n2)CCC(=O)N1CC1CC1 (centres undefined) | cytotoxicity at 10 µM | % | -1.74

Incoming: Item under review: CC(O)c1cn(CC2CCN(C(=O)c3cscn3)CC2)nn1 (centres undefined) . Reported cytotoxicity at 10 µM?
Outgoing: 1.83

Incoming: Item under review: Cc1cc(CCC(=O)N(C)C)nc(C2CCCCN2)n1 (centres undefined) . Reported cytotoxicity at 10 µM?
Outgoing: -2.39

Incoming: Item under review: `N#Cc1ccc(OC2CCN(C(=O)c3ccc4c(c3)OCO4)CC2)nc1` . Reported cytotoxicity at 10 µM?
Outgoing: -14.7

Incoming: Item under review: `O=C1[C@H]2CN(Cc3ccoc3)C[C@H]2CN1CCN1CCCC1` . Reported cytotoxicity at 10 µM?
Outgoing: 1.05

Incoming: Item under review: `CC(C)N(C(=O)c1ccnc(OCC(F)(F)F)c1)c1cccnc1` . Reported cytotoxicity at 10 µM?
Outgoing: 8.05

Incoming: Item under review: `CS(=O)(=O)NCc1cnc2n1CCN(Cc1ccccn1)CC2` . Reported cytotoxicity at 10 µM?
Outgoing: 8.85

Incoming: Item under review: `CC(C)c1nc2c(n1C)CCN(CCCOc1ccc(C#N)cc1)C2` . Reported cytotoxicity at 10 µM?
Outgoing: -12.8

Incoming: Item under review: `CN(C)c1ccc(C(=O)N2CCN(CC(C)(C)O)CC2)nn1` . Reported cytotoxicity at 10 µM?
Outgoing: -13.3

Incoming: Item under review: O=C(NC1CC1)N1CCCC2(CCCCN2)C1 (centres undefined) . Reported cytotoxicity at 10 µM?
Outgoing: 8.77

Incoming: Item under review: `Cc1cc(C[C@@H]2CCC[C@H]2NCc2cc(F)ccc2F)on1` . Reported cytotoxicity at 10 µM?
Outgoing: -5.72

Incoming: Item under review: `CN1CCN(C2CCN(CCCOc3ccc(F)cc3)CC2)C1=O` . Reported cytotoxicity at 10 µM?
Outgoing: 0.28

Incoming: Item under review: CCOc1ccc(CNCC(O)c2ccccc2)cc1Cl (centres undefined) . Reported cytotoxicity at 10 µM?
Outgoing: -3.4

Incoming: Item under review: `Cc1cc(CNC(=O)CCN2CCN(c3ccccn3)CC2)c(C)o1` . Reported cytotoxicity at 10 µM?
Outgoing: 1.71

Incoming: Item under review: `CN(Cc1cccs1)C(=O)CS(=O)(=O)Cc1ccc(Cl)c(Cl)c1` . Reported cytotoxicity at 10 µM?
Outgoing: 0.866
